Molecular target: UniProtKB P0AD68
Sequence (P0AD68 1-577): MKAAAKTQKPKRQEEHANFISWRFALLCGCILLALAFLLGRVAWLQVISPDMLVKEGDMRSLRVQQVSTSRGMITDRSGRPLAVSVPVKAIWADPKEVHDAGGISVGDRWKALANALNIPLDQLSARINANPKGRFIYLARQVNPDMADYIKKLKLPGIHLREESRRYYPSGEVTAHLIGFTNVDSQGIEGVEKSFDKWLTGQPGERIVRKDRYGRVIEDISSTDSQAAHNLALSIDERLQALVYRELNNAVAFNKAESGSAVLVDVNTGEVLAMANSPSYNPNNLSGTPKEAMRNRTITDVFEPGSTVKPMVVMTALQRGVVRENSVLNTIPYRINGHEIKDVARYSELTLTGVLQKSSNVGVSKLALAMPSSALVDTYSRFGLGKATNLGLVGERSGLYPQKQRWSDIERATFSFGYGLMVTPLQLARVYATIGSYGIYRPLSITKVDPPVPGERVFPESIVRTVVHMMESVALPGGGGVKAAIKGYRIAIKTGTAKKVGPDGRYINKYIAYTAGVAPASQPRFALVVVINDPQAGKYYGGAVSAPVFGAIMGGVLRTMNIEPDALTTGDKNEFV
Assay: Fluorescence polarisation direct binding assay
Conditions: direct binding to PBP 3 (E. coli)
Metric: pKd
Reminder that pKd means the negative base-10 logarithm of the concentration expressed in mol/L.

Quick one: pKd for Cc1cc(C)n2c1C=C1C=CC(CCC(=O)Nc3ccc(OCC(=O)N[C@@H]4C(=O)N5[C@@H]4SC(C)(C)[C@@H]5C(=O)O)cc3)=[N+]1[B-]2(F)F ?
6.36

====

Target: unmodified PBP protein
Experiment: Fluorescence polarisation competition binding assay (BODIPY labelled penicillin tracer)
Settings: competition with BODIPY labelled penicillin tracer
Metric: Ki (nM)
Return type: number; implicit unit nM.

Quick one: Ki for A-CiLENCiiYYVPYYGYACiii-A, TATA bicyclic peptide [BCY12123, A-(SEQ ID NO: 3)-A] ?
1390
